All values here come from PubChem BioAssay (NCATS).

test: Cellular Toxicity (caspase-3) Mesangial (AID 660); conditions: mesangial cells, normalized: DMSO 0%, 100 µM tamoxifen 100%; series mostly up to 91.7 µM;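 also: combined caspase 3 and 7 activity read by Caspase-Glo luminescence; cells exposed to compound for 16 h before the caspase read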
The source made the active and inactive calls. Calls follow the shape of the dose curve; as a rule, active = well fitted activation curve with a large enough effect; inconclusive = small, poorly fitted or top-dose-only effect; inactive = flat fitted curve, though single readings scatter.
measuredMetric: outcome

In [3]: df
Out[3]:
                                   compound  readoutvalue
0  CCOC(=O)C1OC1(C)c1ccccc1 (stereo not drawn)      inactive
1                     Cc1ccccc1[N+](=O)[O-]      inactive
2                               Cc1cnc[nH]1      inactive

----------
target: Thyroid hormone receptor beta (Homo sapiens) (UniProt P10828); assay: qHTS assay for small molecule antagonists of thyroid hormone receptor beta signaling (AID 588547); conditions: TR-UAS-bla HEK293, beta-lactamase ratio, antagonist mode, 18 h;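 also: cells stimulated with 0.4 nM T3 agonist during compound exposure; % is scaled to controls: 0 for no effect and ±100 for the full control effect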
Sequence (P10828 whole entry, looked up): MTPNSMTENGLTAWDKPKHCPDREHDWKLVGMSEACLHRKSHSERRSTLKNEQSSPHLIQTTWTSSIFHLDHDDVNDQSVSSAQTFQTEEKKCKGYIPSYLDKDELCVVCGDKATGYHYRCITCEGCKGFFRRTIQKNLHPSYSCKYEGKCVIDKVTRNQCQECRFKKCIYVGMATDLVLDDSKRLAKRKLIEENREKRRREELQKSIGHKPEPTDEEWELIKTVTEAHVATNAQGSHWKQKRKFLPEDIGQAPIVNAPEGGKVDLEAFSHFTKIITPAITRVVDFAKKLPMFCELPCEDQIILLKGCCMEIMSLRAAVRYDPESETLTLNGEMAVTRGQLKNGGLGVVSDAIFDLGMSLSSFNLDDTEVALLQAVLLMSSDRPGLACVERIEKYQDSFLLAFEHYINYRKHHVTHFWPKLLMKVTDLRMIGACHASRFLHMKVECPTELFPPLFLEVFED
Results filed as inconclusive are left out.
measuredMetric: activity change % (negative = inhibition) (%)
Numbers only, in %.

>>> print(df.to_string())
                                  compound  readoutvalue
0                             CN(C)C(=O)Cl         -23.4
1                              CCCCOC(C)=O          1.15
2                                   OCCCCO          10.4
3  CC(=O)[O-].CC(=O)[O-].CC(=O)[O-].[Cr+3]          2.34
4                         CN(C)c1ccc(N)cc1          8.59
5                                ClC(Cl)Br          9.06
6       N#CC(O)c1ccccc1 (stereo not given)          8.13
7                          COc1ccc(C=O)cc1          19.4

Dear colleague, could you send me activity change % (negative = inhibition) for each of the items below? Thanks.
1. C[N+](=O)[O-]
2. C(CCOCC1CO1)COCC1CO1 (stereo not given)
3. O=P(OCCCl)(OCCCl)OCCCl
4. C=CCBr
5. CCCCCC[N+](=O)[O-]
6. O=C(O)C(Cl)Br (stereo not given)

Data returned:
1: -5.27; 2: 16.3; 3: 2.42; 4: -19.2; 5: -9.74; 6: 7.08

----------
target: Cytochrome P450 1A2 (Homo sapiens) (UniProt P05177); assay: p450-cyp1a2 (AID 410); details: recombinant CYP1A2, luciferin-ME demethylation, luminescence; series mostly up to 11.4 µM
Sequence (P05177 whole entry, looked up): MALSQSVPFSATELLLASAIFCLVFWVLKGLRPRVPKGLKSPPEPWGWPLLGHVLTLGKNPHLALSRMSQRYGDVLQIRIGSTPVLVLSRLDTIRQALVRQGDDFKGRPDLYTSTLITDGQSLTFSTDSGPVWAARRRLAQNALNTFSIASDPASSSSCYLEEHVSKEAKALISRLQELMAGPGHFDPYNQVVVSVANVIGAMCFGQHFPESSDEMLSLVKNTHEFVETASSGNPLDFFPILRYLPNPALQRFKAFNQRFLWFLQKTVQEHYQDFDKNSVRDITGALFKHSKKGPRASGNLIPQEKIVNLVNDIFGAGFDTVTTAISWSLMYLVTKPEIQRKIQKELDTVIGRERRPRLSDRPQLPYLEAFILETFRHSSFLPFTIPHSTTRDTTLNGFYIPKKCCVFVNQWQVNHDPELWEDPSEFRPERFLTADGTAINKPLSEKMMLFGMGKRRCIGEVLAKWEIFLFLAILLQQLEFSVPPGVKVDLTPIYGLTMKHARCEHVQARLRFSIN
Records with an inconclusive call do not appear. Active and inactive are the calls of the source. The call rests on the fitted dose curve.
Respond using exactly one of the listed classes: active, inactive

Field: example entries. Status: answers known.
                                        mol                                    system  labelvalue
0  O=C(O)[C@@H]1[C@H](C(=O)O)[C@]2(Cl)C(Cl)=C(Cl)[C@@]1(Cl)C2(Cl)Cl  Cytochrome P450 1A2 (Homo sapiens) (UniProt P05177)    inactive
1  C[C@@]12CC[C@H](O[C@@H]3O[C@H](CO)[C@@H](O)[C@H](O)[C@@H]3O)C[C@@H]1CC[C@H]1[C@H]2CC[C@@]2(C)[C@@H](C3=CCOC3=O)CC[C@]12O  Cytochrome P450 1A2 (Homo sapiens) (UniProt P05177)    inactive
2  CC1=NN(c2ccc(S(=O)(=O)O)cc2C)C(=[OH+])[C@H]1N=Nc1cc(S(=O)(=O)O)ccc1C(=O)O.O.[Cr]  Cytochrome P450 1A2 (Homo sapiens) (UniProt P05177)    inactive
3               CS(=O)(=O)O[C@H]1CN2CCC1CC2  Cytochrome P450 1A2 (Homo sapiens) (UniProt P05177)    inactive
4      N[C@H](Cc1ccc(N(CCCl)CCCl)cc1)C(=O)O  Cytochrome P450 1A2 (Homo sapiens) (UniProt P05177)      active
5  O=C(O)Cc1ccc([N+](=O)[O-])cc1[N+](=O)[O-]  Cytochrome P450 1A2 (Homo sapiens) (UniProt P05177)      active
6  COc1cc2c3cc1Oc1c(O)c(OC)cc4c1[C@@H](Cc1ccc(cc1)Oc1cc(ccc1O)C[C@H]3N(C)CC2)N(C)CC4  Cytochrome P450 1A2 (Homo sapiens) (UniProt P05177)    inactive
7     COC(=O)[C@H](N)CCCN=C(N)N[N+](=O)[O-]  Cytochrome P450 1A2 (Homo sapiens) (UniProt P05177)    inactive

Data request: I would be grateful if you could indicate the recorded call for `C[C@H]1CC[C@@]2(NC1)O[C@@H]1C[C@@H]3[C@@H]4CC=C5C[C@@H](O)CC[C@]5(C)[C@@H]4CC[C@]3(C)[C@H]1[C@@H]2C` .
Data returned: inactive

Data request: Identify the outcome logged in this assay for the compound shown: `CC(C)c1nccn1Cc1ccc(Cl)cc1Cl`
Data returned: inactive
